- test.method.notes: Plasma pharmacokinetics of bimiralisib, non-compartmental analysis (LC-MS)
- Format: in vivo, human
- test.context: human, plasma, oral, 100 mg, Intermittent Dose Schedule A, 100 mg, Day 8, 3 patients; read-out: AUC0–8 Geometric Mean (%CV)
observed.property: AUC(0-t) (ng·h/mL)
Response body: numeric value in ng·h/mL, unit text excluded.

*Q* Given the compound Nc1cc(C(F)(F)F)c(-c2nc(N3CCOCC3)nc(N3CCOCC3)n2)cn1 , write its reported AUC(0-t).
*A* 3910

====

- test.method.notes: Plasma pharmacokinetics of bimiralisib, non-compartmental analysis (LC-MS)
- Assay type: in vivo, human
- test.context: human, plasma, oral, 160 mg, Intermittent Dose Schedule A, 160 mg, Day 8, 3 patients; read-out: Cmax Mean (%CV)
observed.property: Cmax (ng/mL)
Give just the number in ng/mL; leave the unit off.

*Q* Could you please provide reported Cmax for Nc1cc(C(F)(F)F)c(-c2nc(N3CCOCC3)nc(N3CCOCC3)n2)cn1 [bimiralisib] ? Thanks!
*A* 857

====

- test.method.notes: Plasma pharmacokinetics of bimiralisib, non-compartmental analysis (LC-MS)
- Format: in vivo, human
- test.context: human, plasma, oral, 140 mg, Intermittent Dose Schedule B, 140 mg, Day 1, 3 patients; read-out: AUC0–8 Geometric Mean (%CV)
observed.property: AUC(0-t) (ng·h/mL)
Numeric only. Scale: ng·h/mL

*Q* Name the recorded AUC(0-t) of the item Nc1cc(C(F)(F)F)c(-c2nc(N3CCOCC3)nc(N3CCOCC3)n2)cn1 [bimiralisib] in your answer.
*A* 4150

====

- test.method.notes: Plasma pharmacokinetics of bimiralisib, non-compartmental analysis (LC-MS)
- Format: in vivo, human
- test.context: human, plasma, oral, 120 mg, Intermittent Dose Schedule B, 120 mg, Day 8, 3 patients; read-out: Tmax Median, (Range)
observed.property: Tmax (h)
State the answer as a number, implicitly in h.

*Q* Supply reported Tmax belonging to this compound: Nc1cc(C(F)(F)F)c(-c2nc(N3CCOCC3)nc(N3CCOCC3)n2)cn1
*A* 1

====

- test.method.notes: Plasma pharmacokinetics of bimiralisib, non-compartmental analysis (LC-MS)
- Format: in vivo, human
- test.context: human, plasma, oral, 140 mg, Intermittent Dose Schedule A, 140 mg, Day -3, 6 patients; read-out: AUC0–8 Geometric Mean (%CV)
observed.property: AUC(0-t) (ng·h/mL)
Response body: numeric value in ng·h/mL, unit text excluded.

*Q* Supply recorded AUC(0-t) for Nc1cc(C(F)(F)F)c(-c2nc(N3CCOCC3)nc(N3CCOCC3)n2)cn1 here.
*A* 2580

====

- test.method.notes: Plasma pharmacokinetics of bimiralisib, non-compartmental analysis (LC-MS)
- Format: in vivo, human
- test.context: human, plasma, oral, 80 mg, Intermittent Dose Schedule B, 80 mg, Day 8, n = 3; read-out: AUC0–24 Geometric Mean (%CV)
observed.property: AUC(0-t) (ng·h/mL)
Report the figure in ng·h/mL without appending any unit label.

*Q* Look up AUC(0-t) of Nc1cc(C(F)(F)F)c(-c2nc(N3CCOCC3)nc(N3CCOCC3)n2)cn1 and report it.
*A* 6350

====

- test.method.notes: Plasma pharmacokinetics of bimiralisib, non-compartmental analysis (LC-MS)
- Format: in vivo, human
- test.context: human, plasma, oral, after the first dose, all three dosing schedules; range, 0.5–48 h; read-out: Median time to reach the peak plasma concentration (Tmax)
observed.property: Tmax (h)
Write the value in h as a bare number.

*Q* Please look at this molecule and report its Tmax: Nc1cc(C(F)(F)F)c(-c2nc(N3CCOCC3)nc(N3CCOCC3)n2)cn1
*A* 2
